Would you mind telling me the reported pIC50 of each entry?
Biological target: human MetAP2 enzyme (Homo sapiens, UniProt P50579)
Sequence (P50579 whole entry): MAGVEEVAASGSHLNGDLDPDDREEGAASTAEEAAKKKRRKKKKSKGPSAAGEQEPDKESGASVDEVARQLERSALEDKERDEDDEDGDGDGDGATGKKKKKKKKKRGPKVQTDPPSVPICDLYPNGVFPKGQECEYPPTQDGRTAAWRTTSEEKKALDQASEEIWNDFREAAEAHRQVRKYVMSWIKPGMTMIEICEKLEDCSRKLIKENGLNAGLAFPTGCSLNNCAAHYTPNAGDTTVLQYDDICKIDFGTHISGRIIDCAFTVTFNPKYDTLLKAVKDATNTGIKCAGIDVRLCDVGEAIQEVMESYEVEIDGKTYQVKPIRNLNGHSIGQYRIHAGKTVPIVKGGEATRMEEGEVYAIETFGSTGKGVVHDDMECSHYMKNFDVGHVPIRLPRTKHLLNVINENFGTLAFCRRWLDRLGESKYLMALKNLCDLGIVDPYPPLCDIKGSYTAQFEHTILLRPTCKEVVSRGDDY
Experiment: MetAP2 enzyme assay, MetAP2 enzyme complexed with manganese ions
Settings: MetAP2 Mn pIC50, 10 μM MnCl2; -log(IC50), IC50 molar
One number for each entry, as −log10 of the molar value.

Items follow; give pIC50 for each.
1. Cc1nc(N2CCC(O)CC2)ncc1-n1c2ccc(F)cc2c2[nH]ncc21 [Example 78]
2. Cc1cc(C(=O)NCCO)ncc1-n1c2ccc(F)cc2c2[nH]ncc21
3. Cc1nc(N2CCC(CO)CC2)ncc1-n1c2ccc(F)cc2c2[nH]ncc21
4. Cc1nc(N2C[C@@H](O)[C@H](O)C2)ncc1-n1c2ccc(F)cc2c2[nH]ncc21
5. Cc1nc(NC[C@H](C)O)ncc1-n1c2ccc(F)cc2c2[nH]ncc21
6. N#Cc1[nH]ncc1-n1c2ccc(F)cc2c2[nH]ncc21
7. CNC(=O)c1ccc(-n2c3ccc(F)cc3c3[nH]ncc32)c(C)n1

Completion:
1: 8.00; 2: 7.70; 3: 8.00; 4: 8.20; 5: 8.10; 6: 8.00; 7: 8.00

Items follow; give pIC50 for each.
1. Cc1nc2c(cc1-n1c3ccc(F)cc3c3[nH]ncc31)ncn2CCO
2. COc1ccc(-n2c3ccc(F)cc3c3[nH]ncc32)c(C)n1
3. Cc1nn(C)c(C)c1-n1c2ccc(F)cc2c2[nH]ncc21
4. Cc1nc2[nH]c(=O)[nH]c2cc1-n1c2ccc(F)cc2c2[nH]ncc21
5. Cc1nc2c(cc1-n1c3ccc(F)cc3c3[nH]ncc31)ncn2C[C@H](O)CO
6. Cc1nc(C(=O)NCCCO)ccc1-n1c2ccc(F)cc2c2[nH]ncc21
7. CNC(=O)c1cc(C)c(-n2c3ccc(F)cc3c3[nH]ncc32)cn1

Completion:
1. 8.00
2. 8.30
3. 7.50
4. 8.00
5. 7.60
6. 8.00
7. 8.00

Items follow; give pIC50 for each.
1. Cc1nc(C(=O)NC2CC2)ccc1-n1c2ccc(F)cc2c2[nH]ncc21
2. Cc1nc(N2CC[C@H](C(=O)N3CC(O)C3)C2)ncc1-n1c2ccc(F)cc2c2[nH]ncc21
3. CCn1nc(C)c(-n2c3ccc(F)cc3c3[nH]ncc32)c1C
4. Cc1nc(N2CC(O)C2)ncc1-n1c2ccc(F)cc2c2[nH]ncc21

Completion:
8.00
7.90
7.80
7.80

Source of measurements: patent US9475816B2
